Assay: Anthelmintic activity against Nematospiroides dubius when the dose was administered orally in mouse.
Format: functional
Set-up: concentration or dose not given beside the values
Measured Activity by item
property: Activity (%)

                              moleculesmiles  property  resultvalue
 0        S=C=Nc1ccc(-c2nc(-c3ccccn3)no2)cc1  Activity            0
 1  c1ccc(-c2nc(CCn3c(-c4cscn4)nc4ccccc43)no2)cc1  Activity           17
 2         S=C=Nc1ccc(-c2nc(-c3cccs3)no2)cc1  Activity           22
 3         CCOC(=O)c1nc(-c2ccc(N=C=S)cc2)no1  Activity            0
 4         S=C=Nc1ccc(-c2noc(-c3ccco3)n2)cc1  Activity           72
 5    COC(=O)Nc1cc(-c2nc(-c3ccco3)no2)ccc1Cl  Activity            0
 6    S=C=Nc1ccc(-c2noc(-c3ccc(Cl)cc3)n2)cc1  Activity            0
 7         O=C(Nc1ccc(-c2ncon2)cc1)Oc1ccccc1  Activity            0
 8                        c1cc(-c2ncon2)ccn1  Activity            0
 9  O=C(Nc1cc(-c2nc(-c3ccco3)no2)ccc1Cl)OCC(Cl)(Cl)Cl  Activity            0
10  S=C=Nc1cc(-c2nc(-c3ccco3)no2)ccc1Sc1ccccc1  Activity            0
11        S=C=Nc1ccc(-c2noc(-c3ccccn3)n2)cc1  Activity            0
12         S=C=Nc1ccc(-c2noc(-c3cccs3)n2)cc1  Activity           57

Taken from ChEMBL document CHEMBL1123032.
